B1: Hairpin Ribozyme (parent)
chain: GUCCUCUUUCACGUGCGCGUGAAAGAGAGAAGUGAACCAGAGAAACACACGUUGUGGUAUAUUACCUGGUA

Variants of: B1
test_protocol: self-cleavage, relative activity (ratio to wild type); higher = more cleavage; co-transcriptional
measured_metric: self-cleavage
Lab note: jot the number down without any unit.

Measured self-cleavage of U58G G68U : 0.19

Briefly, self-cleavage measured for G29A U67A : 0.0562

Looking up G21U A23C , I see its self-cleavage listed as 0.595

Looking up U5C C6A , I found its self-cleavage recorded as 0.393

# self-cleavage (variant: C3G U20A ) is 0.222

// G1U G69C : self-cleavage value = 0.0943

The measured self-cleavage associated with A22U A61G reads 0.155

G13A A59C has a reported self-cleavage of 0.196

Looking up G40U A59C , I see its self-cleavage listed as 0.0879

Recorded result, A35G A47U , self-cleavage: 0.178

# variant A61G C66A ; its self-cleavage = 0.246

Per the record, C46G G51A has self-cleavage of 0.154

Form field self-cleavage, entry G1C U5C : 0.361

Item: U14A U20A | self-cleavage: 0.67

Measured self-cleavage of A11G A26G : 0.751

For record C4A U9A the listed self-cleavage is 0.233

get_value(item= A35C A49C , readout=self-cleavage) returns 0.147

This collection of values is drawn from the RNAGym collection of RNA variant scans (doi:10.7554/elife.80360).
